// reported EC50 per item
assay: Effective concentration required for reversible loss of righting reflex in Xenopus laevis tadpoles; type: functional, Tadpole
readout-kind: EC50 (nM)

>>> print(df.to_string())
                                   compound  value_units  meas_value
0                     CC(C)c1cccc(C(C)C)c1O           nM        1900
1  CCOC(=O)c1cncn1[C@H](C)c1ccccc1 [ETOMIDATE]           nM        2300
2  CCOC(=O)c1cn(-c2ccc(Cl)cc2Cl)c(-c2ccc(Cl)cc2)n1           nM        1200
